// values below are reported Percent Effect
tested on: Wolbachia pipientis; assay: Anti-Wolbachia Cell-Based Screen; type: functional; set-up: scale not given: in the data most compounds retested in dose-response had high values; conditions: 5 µM
Hit rate of the full screen: of about 48,000 compounds, about 13,000 (27%) showed an effect of 50% or more. The list shows a part of the results.
// return numeric value only (unit: %, not printed)

// solved cases for Percent Effect follow
COCCn1cnnc1Cn1ccnc1-c1ccccc1C : -14.43
CCS(=O)(=O)N1CCc2c(CN(C)Cc3ccco3)cncc2C1.Cl.Cl : 0.2646
CN(c1nc(CSc2nnc(Cn3cncn3)o2)cs1)C1CC1 : -4.174
CC(=O)NCCC(=O)N(C/C=C/c1ccccc1)CCO : 2.612
CN(Cc1ccco1)Cc1cncc2c1CCN(S(C)(=O)=O)C2.Cl.Cl : 114

Now for a further compound.
Ask | Test system Wolbachia pipientis; read-out Percent Effect; what value for CCC(CC)c1nnc(NC(=O)N2CCC(C(N)=O)CC2)s1 ?
Reply | -0.6648

----------
tested on: Wolbachia pipientis; experiment: Anti-Wolbachia Cell-Based Screen; format: functional; design: scale not given: in the data most compounds retested in dose-response had high values; conditions: 5 µM
In all, about 48,000 compounds went through this assay and about 13,000 (27%) showed an effect of 50% or more. This is one part of the list.
// values below are reported Percent Effect
// return numeric value only (unit: %, not printed)

// solved cases for Percent Effect follow
COCCN(Cc1ccoc1)C(=O)c1c(F)cccc1F : 126.9
COCCN(CCOC)C(=O)c1ccoc1C : -2.566
CCN(Cc1ccoc1)C(=O)c1ccc(C)c(S(N)(=O)=O)c1 : 0.3555

Ask | Sample CCc1ncc(C(=O)N(CCOC)Cc2ccccc2F)cn1 — what was its Percent Effect?
Reply | -19.66

Ask | Sample COCCN(Cc1ccncc1)C(=O)C1COc2c(cccc2OC)C1 (configuration not stated) — what was its Percent Effect?
Reply | 4.804

Ask | Sample CCN(Cc1ccoc1)C(=O)c1ccncc1O — what was its Percent Effect?
Reply | 2.225

Ask | Sample COCCN(Cc1ccoc1)C(=O)c1ccccc1OC — what was its Percent Effect?
Reply | 102.9

----------
system: Wolbachia pipientis; assay: Anti-Wolbachia Cell-Based Screen; assay type: functional; design: scale not given: in the data most compounds retested in dose-response had high values; conditions: 5 µM
Hit rate of the full screen: of about 48,000 compounds, about 13,000 (27%) showed an effect of 50% or more. This is one part of the list.
// values below are reported Percent Effect
// return numeric value only (unit: %, not printed)

// solved cases for Percent Effect follow
O=C(CCC1CCCCO1)NCc1cnn(-c2ccc(F)cc2F)c1 (configuration not stated) : 2.583
CCN(Cc1ccc(C#N)cc1F)C(=O)C(C)(C)C : 4.691
CCN1CCC(CC(=O)NCCc2nc(C)c(Cl)s2)CC1 : -2.005
CCOCC(=O)NC(C)c1cc(C)ccc1C (configuration not stated) : 4.424
Cc1ccc(CN2CCC(n3cc(CN4CCC(O)CC4)nn3)CC2)s1 : -6.735
CCOC(=O)NCCC(=O)NCc1ccc(Oc2ccc(F)cc2)nc1 : -9.89

Ask | Sample Cc1cc(C)n(C2CN(C(=O)Cn3c(C)cc(=O)c4ccccc43)C2)n1 — what was its Percent Effect?
Reply | 17.29

Ask | Sample COc1ccc(-c2nc(CNC(C)Cn3cccn3)cs2)cc1 (configuration not stated) — what was its Percent Effect?
Reply | 6.683

Ask | Sample CNC(=O)NC(=O)CSC(C)c1ccccc1F (configuration not stated) — what was its Percent Effect?
Reply | -20.44

Ask | Sample N[C@@H]1c2ccccc2C2(CCN(C(=O)c3ccccc3O)CC2)[C@H]1O — what was its Percent Effect?
Reply | 0.509

Ask | Sample CC(C)=CCC1(CO)CCCN(S(=O)(=O)N2CCCC2)C1 (configuration not stated) — what was its Percent Effect?
Reply | -19.27

Ask | Sample CN1C[C@@H](NC(=O)C2CC2)C[C@H]1c1nc(-c2cnccn2)no1 — what was its Percent Effect?
Reply | -3.142

----------
system: Wolbachia pipientis; assay: Anti-Wolbachia Cell-Based Screen; type: functional; parameters: scale not given: in the data most compounds retested in dose-response had high values; conditions: 5 µM
About 13,000 (27%) of roughly 48,000 compounds showed an effect of 50% or more. The list shows a part of the results.
property-measured: Percent Effect (%)
// return numeric value only (unit: %, not printed)

// solved cases for Percent Effect follow
CCCn1ncc(CN(CCN(C)C)Cc2ccsc2)c1C : 0.1145
Cn1cc(CN2CCc3ncn(C)c3C2COCc2ccccc2)cn1 (configuration not stated) : 0.114

Ask | Sample CNC(=O)c1cccc(NCCOc2ccc(CC#N)cc2)c1C — what was its Percent Effect?
Reply | 12.16

Ask | Sample c1cnc(N2CCN(Cc3nnnn3C3CC3)CC2)nc1 — what was its Percent Effect?
Reply | -20.27

----------
system: Wolbachia pipientis; experiment: Anti-Wolbachia Cell-Based Screen; format: functional; set-up: scale not given: in the data most compounds retested in dose-response had high values; conditions: 5 µM
The whole screen tested about 48,000 compounds, of which about 13,000 (27%) showed an effect of 50% or more. This is one part of the list.
property-measured: Percent Effect (%)
// return numeric value only (unit: %, not printed)

// solved cases for Percent Effect follow
Cc1ccc(-c2ncc(C(=O)N3CCCN4CCC[C@H]4C3)c(O)n2)cc1 : -8.702
Cc1ccccc1CNC(=O)c1ccccc1-n1cnc(CN)c1 : 128.9

Ask | Sample CC1CN(C(=O)CN(Cc2ccco2)C2CC2)CCO1 (configuration not stated) — what was its Percent Effect?
Reply | -3.205

Ask | Sample CC1CN(C(=O)c2sccc2Br)CCO1 (configuration not stated) — what was its Percent Effect?
Reply | 5.426

Ask | Sample O=C(NCCC1CN(Cc2cccnc2)CCO1)c1ccsc1 (configuration not stated) — what was its Percent Effect?
Reply | -9.218

Ask | Sample CN1CCc2c(NC(=O)NCc3ccccc3Cl)cccc21 — what was its Percent Effect?
Reply | -4.639

Ask | Sample COc1cccc(CNC(=O)N2CCCC(Cn3cc(CN)nn3)C2)c1 (configuration not stated) — what was its Percent Effect?
Reply | -31.64

Ask | Sample Cc1cc(C)c(Cn2cncn2)cc1CN1CC[C@H](CO)[C@@H](O)C1 — what was its Percent Effect?
Reply | 2.193

Ask | Sample Cc1nnc(CN(Cc2ccccc2Cl)C2CCCC2)o1 — what was its Percent Effect?
Reply | -12.06

Ask | Sample CC(C)=CCC1(CO)CCCN(Cc2nccs2)C1 (configuration not stated) — what was its Percent Effect?
Reply | 1.266

Ask | Sample COc1cccc(CNC(=O)c2ccccc2-n2cnc(CN)c2)c1 — what was its Percent Effect?
Reply | 113.9

Ask | Sample COc1ccccc1CNC(=O)c1ccccc1-n1cnc(CN)c1 — what was its Percent Effect?
Reply | 104.3

----------
tested on: Wolbachia pipientis; assay: Anti-Wolbachia Cell-Based Screen; format: functional; set-up: scale not given: in the data most compounds retested in dose-response had high values; settings: 5 µM
Screen size: about 48,000 compounds; about 13,000 (27%) showed an effect of 50% or more. The list shows a part of the results.
// values below are reported Percent Effect
// return numeric value only (unit: %, not printed)

// solved cases for Percent Effect follow
Cc1cc(NCC(=O)N(C)CC(F)(F)F)c(C(N)=O)cc1F : -3.816
CC(C)COC(=O)N1CC(=O)N(Cc2ccco2)CC(O)C1 (stereo unspecified) : 111.6
CN(C)Cc1nn(C)c2c1CN(S(=O)(=O)c1ccccc1F)C2 : 3.844
O=C(NCCc1cccnc1)C1CCCN(Cc2ccco2)C1 (stereo unspecified) : -20.69
O=C(NCc1cccnc1)C1CN(c2cnc3ccccc3n2)CCN1 (stereo unspecified) : -3.228

Ask | Sample O=C([C@H]1COC[C@H]2CN(Cc3ccco3)C[C@H]21)N1CCCO1 — what was its Percent Effect?
Reply | -9.766

----------
system: Wolbachia pipientis; test: Anti-Wolbachia Cell-Based Screen; type: functional; parameters: scale not given: in the data most compounds retested in dose-response had high values; conditions: 5 µM
The campaign covered roughly 48,000 compounds. About 13,000 (27%) showed an effect of 50% or more. Some of the results follow.
property-measured: Percent Effect
A complete answer gives the number and then names the unit.

COc1cccc(OC2CN(C(=O)CCn3cnnn3)C2)c1 : -0.2846%
Cc1cc(C(=O)NC2CCCOc3cc(Cl)ccc32)n(C)n1 (centres undefined) : 104.1%

Ask | Sample CN(Cc1nnc(-c2ccco2)o1)C1CCCN(c2cccnn2)C1 (centres undefined) — what was its Percent Effect?
Reply | 5.287%

Ask | Sample Fc1ccc(OCCCN2CCOC(Cn3cncn3)C2)cc1 (centres undefined) — what was its Percent Effect?
Reply | 3.822%

Ask | Sample Cc1ccc2c(c1)OCCCC2NCc1nccn1CC(C)C (centres undefined) — what was its Percent Effect?
Reply | -15.26%

Ask | Sample O=C(NC1CCCOc2cc(Cl)ccc21)c1ccc(=O)[nH]n1 (centres undefined) — what was its Percent Effect?
Reply | 103.9%

Ask | Sample Cc1cccc(SC2CCN(C(=O)CCNS(C)(=O)=O)CC2)c1 — what was its Percent Effect?
Reply | 90.55%

Ask | Sample Cc1ccc(N2CCCC(N(C)Cc3cc(C)on3)C2)nn1 (centres undefined) — what was its Percent Effect?
Reply | -10.05%

Ask | Sample O=C(C1CC1)N1C[C@@H](F)[C@@H](OCc2nc3cc(F)ccc3[nH]2)C1 — what was its Percent Effect?
Reply | -13.75%

Ask | Sample c1cnn(C2CN(CCCOc3ccc4c(c3)OCO4)C2)c1 — what was its Percent Effect?
Reply | -8.072%

Ask | Sample CSCCC(CO)NC(=O)c1ccc2[nH]/c(=N\S(C)(=O)=O)sc2c1 (centres undefined) — what was its Percent Effect?
Reply | 102%

Ask | Sample c1ncn(CC2CN(CCCOc3ccc4c(c3)OCO4)CCO2)n1 (centres undefined) — what was its Percent Effect?
Reply | 97.52%

Ask | Sample Cc1ccc2c(c1)OCCCC2NCc1nccn1Cc1ccccc1 (centres undefined) — what was its Percent Effect?
Reply | -22%

Ask | Sample COc1ccc(Nc2cc(C)nc(C)n2)cc1N1CCCC1=O — what was its Percent Effect?
Reply | -4.769%

Ask | Sample Cc1c(C(=O)NC2CCCOc3cc(Cl)ccc32)cnn1C (centres undefined) — what was its Percent Effect?
Reply | 96.08%

Ask | Sample Cc1ccccc1SC1CCN(C(=O)CCCS(N)(=O)=O)CC1 — what was its Percent Effect?
Reply | 85.51%

Ask | Sample Cc1cccc(OC2CCN(C(=O)CNC(=O)N(C)C)CC2)c1 — what was its Percent Effect?
Reply | 0.03491%

Ask | Sample Cc1ncc(CN(C)CC(O)c2ccc(Br)cc2)s1 (centres undefined) — what was its Percent Effect?
Reply | 5.745%

Ask | Sample Cc1ccccc1SC1CCN(C(=O)[C@H]2[C@@H]3CNC[C@@H]32)CC1 — what was its Percent Effect?
Reply | -39.6%

Ask | Sample COCCNC(=O)CSCc1nc(O)c2cc(C(C)C)sc2n1 — what was its Percent Effect?
Reply | -3.697%
